What pIC50 was measured for each of the following?
# subject_of_test: Cholinesterase (Equus caballus, UniProt P81908)
# Sequence (P81908 whole entry): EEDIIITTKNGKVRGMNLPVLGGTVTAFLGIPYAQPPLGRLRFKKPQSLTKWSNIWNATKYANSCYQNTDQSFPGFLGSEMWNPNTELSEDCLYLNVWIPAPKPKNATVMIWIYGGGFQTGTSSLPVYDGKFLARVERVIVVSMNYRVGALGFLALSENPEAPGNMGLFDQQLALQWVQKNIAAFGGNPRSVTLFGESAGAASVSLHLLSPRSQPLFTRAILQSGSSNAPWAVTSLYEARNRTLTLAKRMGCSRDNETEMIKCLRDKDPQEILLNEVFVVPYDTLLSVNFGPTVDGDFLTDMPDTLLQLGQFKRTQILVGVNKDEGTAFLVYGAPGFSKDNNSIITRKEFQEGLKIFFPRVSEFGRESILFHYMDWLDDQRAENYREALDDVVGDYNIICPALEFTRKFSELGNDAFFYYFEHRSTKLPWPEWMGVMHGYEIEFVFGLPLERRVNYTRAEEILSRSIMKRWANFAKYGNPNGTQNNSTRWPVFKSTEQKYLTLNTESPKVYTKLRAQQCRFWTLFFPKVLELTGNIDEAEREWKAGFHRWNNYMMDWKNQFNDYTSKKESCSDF
# assay_comment: Inhibition of equine serum BChE using acetylthiocholine iodide as substrate preincubated for 15 mins followed by substrate addition measured after 15 mins by Ellman's method
Please note pIC50 is a logarithmic value: minus log10 of concentration in mol/L. Answer with that number alone.

Hi! What's the reported pIC50 for COc1ccccc1CC(=O)Nc1nc(-c2ccccc2)cs1 on Cholinesterase (Equus caballus, UniProt P81908)?
4.97

Thanks! And Cc1ccccc1CC(=O)Nc1nc(-c2ccccc2)cs1 ?
5.09

Thanks! And O=C(Cc1ccc([N+](=O)[O-])cc1)Nc1nc(-c2ccccc2)cs1 ?
5.20

Thanks! And COc1ccc(CC(=O)Nc2nc(-c3ccccc3)cs2)cc1 ?
5.03

Thanks! And O=C(Cc1ccccc1)Nc1nc(-c2ccccc2)cs1 ?
4.51

Thanks! And O=C(Cc1ccccc1[N+](=O)[O-])Nc1nc(-c2ccccc2)cs1 ?
4.95

Thanks! And O=C(Cc1ccc(Cl)cc1)Nc1nc(-c2ccccc2)cs1 ?
4.60

Thanks! And O=C(Cc1ccccc1Cl)Nc1nc(-c2ccccc2)cs1 ?
4.58

Thanks! And Cc1ccc(CC(=O)Nc2nc(-c3ccccc3)cs2)cc1 ?
5.03

Thanks! And O=C(Cc1ccc(F)cc1)Nc1nc(-c2ccccc2)cs1 ?
4.58

* * *

# assay_comment: Selectivity index, ratio of IC50 for equine serum BChE to IC50 for electric eel AChE
assay_endpoint: Ratio IC50
// return just the number, without any unit appended

Bench note: what Ratio IC50 did COc1ccccc1CC(=O)Nc1nc(-c2ccccc2)cs1 show?
2.07

Thanks! And Cc1ccccc1CC(=O)Nc1nc(-c2ccccc2)cs1 ?
1.05

Thanks! And O=C(Cc1ccc([N+](=O)[O-])cc1)Nc1nc(-c2ccccc2)cs1 ?
0.76

Thanks! And COc1ccc(CC(=O)Nc2nc(-c3ccccc3)cs2)cc1 ?
2.94

Thanks! And O=C(Cc1ccccc1[N+](=O)[O-])Nc1nc(-c2ccccc2)cs1 ?
1.36

Thanks! And O=C(Cc1ccc(F)cc1)Nc1nc(-c2ccccc2)cs1 ?
0.98

Thanks! And O=C(Cc1ccccc1Cl)Nc1nc(-c2ccccc2)cs1 ?
1.14

Thanks! And O=C(Cc1ccccc1)Nc1nc(-c2ccccc2)cs1 ?
0.94

Thanks! And Cc1ccc(CC(=O)Nc2nc(-c3ccccc3)cs2)cc1 ?
1.52

Thanks! And O=C(Cc1ccc(Cl)cc1)Nc1nc(-c2ccccc2)cs1 ?
1.12

* * *

# subject_of_test: Amyloid-beta precursor protein (Homo sapiens, UniProt P05067)
# Sequence (P05067 whole entry): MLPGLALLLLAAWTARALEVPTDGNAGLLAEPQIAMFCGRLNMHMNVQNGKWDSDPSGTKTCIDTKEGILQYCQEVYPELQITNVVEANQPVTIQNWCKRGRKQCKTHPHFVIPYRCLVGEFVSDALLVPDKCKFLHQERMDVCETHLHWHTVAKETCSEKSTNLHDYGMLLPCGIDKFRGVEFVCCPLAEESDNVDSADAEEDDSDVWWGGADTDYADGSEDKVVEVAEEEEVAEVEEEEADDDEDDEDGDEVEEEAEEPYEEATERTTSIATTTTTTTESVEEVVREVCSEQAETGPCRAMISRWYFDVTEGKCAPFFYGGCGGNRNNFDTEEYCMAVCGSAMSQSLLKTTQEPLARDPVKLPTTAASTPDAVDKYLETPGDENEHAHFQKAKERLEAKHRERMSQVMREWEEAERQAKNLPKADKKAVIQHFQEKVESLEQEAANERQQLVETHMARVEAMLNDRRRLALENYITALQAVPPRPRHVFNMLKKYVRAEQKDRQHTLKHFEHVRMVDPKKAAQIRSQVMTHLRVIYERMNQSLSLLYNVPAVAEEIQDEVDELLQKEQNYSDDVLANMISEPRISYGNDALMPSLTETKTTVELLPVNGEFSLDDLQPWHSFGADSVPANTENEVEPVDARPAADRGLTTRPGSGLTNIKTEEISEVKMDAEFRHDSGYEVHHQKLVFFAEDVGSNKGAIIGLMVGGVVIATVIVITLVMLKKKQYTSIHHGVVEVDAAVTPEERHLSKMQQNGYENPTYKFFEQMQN
# assay_comment: Inhibition of self-mediated amyloid beta (1 to 42) (unknown origin) aggregation after 10 hrs by thioflavin T based fluorometric assay
assay_endpoint: IC50

Bench note: what IC50 did COc1ccc(CC(=O)Nc2nc(-c3ccccc3)cs2)cc1 show?
10.6 µM
